- Tested on: mushroom tyrosinase
- ASSAY PROCEDURE: Tyrosinase inhibition test (L-DOPA oxidation, absorbance at 470 nm)
- Format: biochemical
- CONDITION DETAILS: single compound, Concentration 0.1%
READOUT TYPE: Tyrosinase Inhibition (%)
Numbers only, in %.

Look over these answered cases.
{"COMPOUND": "CCCCCCCCCCCCCCC[C@@H](O)[C@@H](N)CO", "Tyrosinase Inhibition (%)": -5.78}
{"COMPOUND": "CC1(C)[C@@H](O[C@H]2O[C@H](C(=O)[O-])[C@@H](O)[C@H](O)[C@H]2O[C@@H]2O[C@H](C(=O)[O-])[C@@H](O)[C@H](O)[C@H]2O)CC[C@]2(C)[C@H]3C(=O)C=C4[C@@H]5C[C@@](C)(C(=O)O)CC[C@]5(C)CC[C@@]4(C)[C@]3(C)CC[C@@H]12.[K+].[K+] [H, Dipotassium glycyrrhizate (DPG)]", "Tyrosinase Inhibition (%)": 54.567}
{"COMPOUND": "C=C(C)[C@@H]1CCC(C)=C[C@H]1c1c(O)cc(CCCCC)cc1O [G, Cannabidiol isolate (CBD)]", "Tyrosinase Inhibition (%)": 9.134}

Kindly consider the entry below.
q: Retrieve Tyrosinase Inhibition (%) measured for O=C(O)C(O)c1ccccc1 (stereo not shown) and print it.
a: 80.279
